Measurement target: Proteasome subunit beta (Trypanosoma cruzi) (UniProt O96673)
Sequence (whole entry): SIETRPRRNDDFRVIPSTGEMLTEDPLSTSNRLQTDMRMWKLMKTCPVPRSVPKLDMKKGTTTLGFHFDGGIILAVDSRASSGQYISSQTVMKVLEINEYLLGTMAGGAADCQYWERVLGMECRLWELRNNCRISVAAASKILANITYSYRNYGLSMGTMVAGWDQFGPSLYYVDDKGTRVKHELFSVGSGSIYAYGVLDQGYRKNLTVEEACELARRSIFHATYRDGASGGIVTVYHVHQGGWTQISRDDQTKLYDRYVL
Protocol summary: Trypanosoma cruzi proteasome chymotrypsin-like activity (TcProtChymo) assay.
Format: functional
Design: scale not given: in the data most compounds retested in dose-response had high values
Measurement context: 9.37 µM
# Percent Effect annotations
Give just the number in %; leave the unit off.

Cc1nc(Nc2ncccn2)cc(C2CCCN2CC(C)C)n1 (stereo unspecified) ... -1.5
O=C1OCCN1CCOc1nc(-c2ccccc2Cl)no1 ... 12.1
CN(C)CCNC(=O)c1cc(-c2cnc(N3CCCC3)nc2)cn1C ... 0.0881
O=C(CCn1ccccc1=O)Nc1ccc(F)c(Cl)c1 ... 10.7
O=C(c1cccs1)N1CCC(O)(CN2CCc3ccccc3C2)C1 (stereo unspecified) ... 11.7

# input For the molecule `COCCN(Cc1ccoc1)C(=O)c1ccccc1Cl` , what Percent Effect is on record?
# output 0.522

# input For the molecule COCC(=O)N1CCCC2(CCN(c3ccsc3)C2=O)C1 (stereo unspecified) , what Percent Effect is on record?
# output -5.73

# input For the molecule CC(NC(=O)NCC1(O)CCC1)c1ccc(OCC2CC2)c(F)c1 (stereo unspecified) , what Percent Effect is on record?
# output 10.3

# input For the molecule `O=C(Nc1cnccn1)[C@H]1COC[C@H]2CN(C3CCCC3)C[C@H]21` , what Percent Effect is on record?
# output -0.0845

# input For the molecule `Cc1ccc([C@@H]2CN(S(=O)(=O)c3cccs3)C[C@H]2N(C)C)cc1` , what Percent Effect is on record?
# output 0.944

# input For the molecule `Cc1nc(N2CCN(C(=O)c3ccccc3)CC2)c2c(n1)c(C)nn2C` , what Percent Effect is on record?
# output 12.9

----------
# Percent Effect annotations
Measurement target: Tyrosyl-tRNA synthetase, putative (Trypanosoma cruzi (strain CL Brener)) (UniProt Q4DSP6)
Sequence (whole entry): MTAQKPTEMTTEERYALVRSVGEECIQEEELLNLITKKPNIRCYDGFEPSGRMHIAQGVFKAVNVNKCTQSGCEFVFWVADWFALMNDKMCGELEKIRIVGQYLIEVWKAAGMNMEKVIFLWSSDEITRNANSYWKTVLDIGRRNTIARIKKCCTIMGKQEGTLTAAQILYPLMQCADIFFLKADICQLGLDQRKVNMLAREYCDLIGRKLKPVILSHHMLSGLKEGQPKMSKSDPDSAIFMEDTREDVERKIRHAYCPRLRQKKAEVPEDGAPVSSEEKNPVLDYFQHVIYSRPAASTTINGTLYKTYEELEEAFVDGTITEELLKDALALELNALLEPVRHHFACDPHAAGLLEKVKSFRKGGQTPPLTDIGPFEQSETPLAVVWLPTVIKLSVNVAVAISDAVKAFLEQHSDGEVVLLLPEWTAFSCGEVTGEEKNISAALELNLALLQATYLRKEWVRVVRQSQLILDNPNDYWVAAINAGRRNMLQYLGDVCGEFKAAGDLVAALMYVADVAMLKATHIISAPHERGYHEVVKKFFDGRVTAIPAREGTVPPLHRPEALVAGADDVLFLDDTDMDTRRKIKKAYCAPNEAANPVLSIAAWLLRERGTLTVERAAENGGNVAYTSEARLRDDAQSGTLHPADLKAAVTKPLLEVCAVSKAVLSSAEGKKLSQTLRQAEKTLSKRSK
Protocol summary: Trypanosoma cruzi tyrosyl tRNA synthetase (TcYRS) _High Tyrosine SOP
Type: functional
Parameters: scale not given: in the data most compounds retested in dose-response had high values
Measurement context: 30 µM
Give just the number in %; leave the unit off.

CCc1nc(C2CCCN(C(=O)CCn3ccccc3=O)C2)no1 (configuration not stated) ... -0.49
Cc1ccc(N2CCCN(C(=O)CC3CCCO3)CC2)nn1 (configuration not stated) ... -1.48
O=c1[nH]c2nc(N3CCSCC3)ncc2c(=O)n1-c1cccc(F)c1 ... 3.19

# input For the molecule O=C(NCC(O)c1ccccc1Cl)c1cccc(-n2cnnn2)c1 (configuration not stated) , what Percent Effect is on record?
# output 3.23

# input For the molecule Cc1cnn(CC2CN(c3ncnc4ccccc34)CCO2)c1 (configuration not stated) , what Percent Effect is on record?
# output 1.48

# input For the molecule `Cn1cc(NS(=O)(=O)c2ccc(OC(F)(F)F)cc2)ccc1=O` , what Percent Effect is on record?
# output 0.493

# input For the molecule O=C(NCc1ccco1)c1nn(C2CCS(=O)(=O)C2)c2c1CCCC2 (configuration not stated) , what Percent Effect is on record?
# output 0

# input For the molecule `CN(C)Cc1nnc(C2CCN(c3nccc(N)n3)CC2)n1C1CC1` , what Percent Effect is on record?
# output 5.26

# input For the molecule `NC(=O)c1nnn(-c2ccc(Br)cc2)n1` , what Percent Effect is on record?
# output 5.29

# input For the molecule `CN(CCOc1cccc(CN)c1)C1CCOCC1` , what Percent Effect is on record?
# output 1.59

# input For the molecule `COCc1nc(N(C)C)ncc1C(=O)Nc1ccn(C)n1` , what Percent Effect is on record?
# output 4.23

# input For the molecule `COCCn1ccc(NC(=O)Nc2cccnc2)n1` , what Percent Effect is on record?
# output 3.19
